System: Saccharomyces cerevisiae
Assay: protein stability index of tFT-peptide fusion (C-terminal peptide) (PSI (0-1 scale)); higher = more stable (slower turnover);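 further: PSI is a weighted mean of sequencing reads over stability bins, variants kept only with over 10 reads, mCherry proximal and sfGFP distal, peptide attached via GGGS linker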
Details: genetic background: das1 deletion; temperature: 30 C
Given measured protein stability index, output Criterion met if it is greater than or equal to 0.4 and Criterion not met if not.

sequence=AGGVNWWSSWRV discrete_label="Criterion met"
sequence=VSVQVRCCPWVG discrete_label="Criterion met"
sequence=LTACRYVCFLLF discrete_label="Criterion met"
sequence=LLVFFLAIPSLV discrete_label="Criterion not met"
sequence=NYCLYFKLSRLS discrete_label="Criterion met"
sequence=IRVLACFLFAVS discrete_label="Criterion not met"
sequence=GPILVWVMADWG discrete_label="Criterion not met"
sequence=LGCFGSSFVFCC discrete_label="Criterion met"
sequence=VGLWCWSFVLVW discrete_label="Criterion not met"
sequence=IVWVSSFVCRSV discrete_label="Criterion met"
sequence=LWGVGFLFVLVG discrete_label="Criterion not met"
sequence=SLICLSVGVLLR discrete_label="Criterion not met"
sequence=FSVTTLTILCLR discrete_label="Criterion not met"
sequence=NKYSMQNVLKSF discrete_label="Criterion met"
sequence=SGWGGGTWVKMG discrete_label="Criterion met"
sequence=FFCCRLPCLFVL discrete_label="Criterion not met"
sequence=WLSFAIECGMVW discrete_label="Criterion not met"
sequence=HGVYSVLRFFFC discrete_label="Criterion met"
sequence=FTFPLPPSLLLV discrete_label="Criterion not met"
sequence=AIMFLVLGYVFF discrete_label="Criterion not met"
sequence=IERGLMLTLCVH discrete_label="Criterion not met"
sequence=CWSSVGLSVCGC discrete_label="Criterion met"
sequence=IWVVIISDSRVG discrete_label="Criterion not met"
sequence=PVPPSLLHRPPF discrete_label="Criterion met"
sequence=LPLHTLLLCPPV discrete_label="Criterion not met"
sequence=YMVSLSFTLVRS discrete_label="Criterion not met"
sequence=AVSFVTLSIMVM discrete_label="Criterion not met"
sequence=LIRLCVAPMVCR discrete_label="Criterion not met"
sequence=GGGVGGAVVLFW discrete_label="Criterion met"
sequence=RLHCFSPILCPI discrete_label="Criterion met"
sequence=SWIKRYEITCIL discrete_label="Criterion met"
sequence=RKVWSLCWFVHL discrete_label="Criterion met"

====

Test system: Saccharomyces cerevisiae
Assay: protein stability index of tFT-peptide fusion (C-terminal peptide) (PSI (0-1 scale)); higher = more stable (slower turnover)
Conditions: genetic background: wild type; temperature: 30 C
Rule: protein stability index under 0.7 gives NO, otherwise YES.

sequence=VEQISYATIAFV discrete_label=NO
sequence=KIIASVLYGVIG discrete_label=NO
sequence=STPSMGSMTRLE discrete_label=YES
sequence=ELDFVVNKIQDW discrete_label=YES
sequence=PLSNLCRVLTFI discrete_label=NO
sequence=VHPHPRSIKRER discrete_label=NO
sequence=VFVGCRECKLCA discrete_label=NO
sequence=QISLPDASLPPS discrete_label=NO
sequence=GFPILSGLAVVR discrete_label=NO
sequence=PVLSRLHSEVFL discrete_label=YES
sequence=KIKQKEITEKNR discrete_label=NO
sequence=GARGWTVWVAGL discrete_label=NO
sequence=TFPGRLPLTRLP discrete_label=YES
sequence=FSVTTLTILCLR discrete_label=NO
sequence=PSPLPTALLTNR discrete_label=NO
sequence=IKSLLGCWHKHY discrete_label=NO
sequence=VFVLFLRAVACR discrete_label=NO
sequence=VKGRKNEGPGKR discrete_label=YES
sequence=RSLGLVGRGFWG discrete_label=YES
sequence=PPAAAPPSPPPL discrete_label=NO
sequence=TISFASLLPPPF discrete_label=YES
sequence=RLMLSWLALRRC discrete_label=NO
sequence=VPTELGGTLIPT discrete_label=NO
sequence=PPVPPPAPPHPR discrete_label=YES
sequence=MVLTVIHFDCDI discrete_label=NO
sequence=GGGLGGREPGGS discrete_label=YES
sequence=TVAEGKKMRGKV discrete_label=NO
sequence=CWLGSIAGLRGR discrete_label=YES

Taken from the supplement of paper PMC10724198.
